# Test system: KYSE-140 (Esophageal Squamous Cell Carcinoma)
# assay.remarks: Bliss excess, mean over the matrix (fraction); higher = more synergy
Each item that follows carries a reported Bliss excess.
Form rule: numeric answer, no unit written next to it.

Before answering, review these 3 worked examples.
molecule="Cc1c2c(nn1C)CSCc1cc(n(C)n1)CSc1cc(c3ccccc3c1)OCCCc1c(C(=O)O)n(C)c3c-2c(Cl)ccc13 [AZD5991] + C1CN(CCC1(C(=O)N[C@@H](CCO)C2=CC=C(C=C2)Cl)N)C3=NC=NC4=C3C=CN4 [Capivasertib] (first compound max 1 µM, 7x7, partner max 3 µM)" readout_number=0.0196
molecule="Cc1cc2ncnn2cc1Nc1ncc2c(n1)n(C1CCOCC1)c(=O)n2C [AZD7648] + CCN(CCO)CCCOc1ccc2c(Nc3cc(CC(=O)Nc4cccc(F)c4)[nH]n3)ncnc2c1 [AZD2811] (first compound max 10 µM, 7x7, partner max 1 µM)" readout_number=0.033
molecule="C[C@@H](c1ccc2nccn2c1)n1nnc2ncc(-c3cnn(C)c3)nc21 [Savolitinib] + Cc1c2c(nn1C)CSCc1cc(n(C)n1)CSc1cc(c3ccccc3c1)OCCCc1c(C(=O)O)n(C)c3c-2c(Cl)ccc13 [AZD5991] (first compound max 1 µM, 7x7, partner max 1 µM)" readout_number=-0.0301

[in] Provide only the value of recorded Bliss excess for COc1cc2c(cc1OCCCCCOc1cc3c(cc1OC)C(=O)N1C=C(C)C[C@H]1C=N3)N=C[C@@H]1CC(C)=CN1C2=O [SG3199] + O=C(c1cc(Cc2n[nH]c(=O)c3ccccc23)ccc1F)N1CCN(C(=O)C2CC2)CC1 [Olaparib] (first compound max 0.001 µM, 7x7, partner max 10 µM)
[out] -0.0186

----------
# Tested on: JHU-022 (Oral Cavity Carcinoma)
# assay.remarks: Bliss excess, mean over the matrix (fraction); higher = more synergy
value.kind: Bliss excess
Form rule: numeric answer, no unit written next to it.

compound="CC1(C)CCC(CN2CCN(c3ccc(C(=O)NS(=O)(=O)c4ccc(NCC5CCOCC5)c([N+](=O)[O-])c4)c(Oc4cnc5[nH]ccc5c4)c3)CC2)=C(c2ccc(Cl)cc2)C1 [Venetoclax] + CCN(CCO)CCCOc1ccc2c(Nc3cc(CC(=O)Nc4cccc(F)c4)[nH]n3)ncnc2c1 [AZD2811] (first compound max 1 µM, 7x7, partner max 1 µM)" readout_number=-0.0139
compound="COc1cccc2c1C(=O)c1c(O)c3c(c(O)c1C2=O)C[C@@](O)(C(=O)CO)C[C@@H]3O[C@H]1C[C@H](N)[C@H](O)[C@H](C)O1 [Doxorubicin] + Cc1cc2ncnn2cc1Nc1ncc2c(n1)n(C1CCOCC1)c(=O)n2C [AZD7648] (first compound max 1 µM, 7x7, partner max 10 µM)" readout_number=-0.0307
compound="CCN(CCO)CCCOc1ccc2c(Nc3cc(CC(=O)Nc4cccc(F)c4)[nH]n3)ncnc2c1 [AZD2811] + C[C@@H]1COCCN1C2=NC(=NC(=C2)C3(CC3)[S@](=N)(=O)C)C4=C5C=CNC5=NC=C4 [AZD6738] (first compound max 1 µM, 7x7, partner max 10 µM)" readout_number=-0.0357
compound="C=CCn1c(=O)c2cnc(Nc3ccc(N4CCN(C)CC4)cc3)nc2n1-c1cccc(C(C)(C)O)n1 [AZD1775] + C1CN(CCC1(C(=O)N[C@@H](CCO)C2=CC=C(C=C2)Cl)N)C3=NC=NC4=C3C=CN4 [Capivasertib] (first compound max 3 µM, partner max 3 µM)" readout_number=-0.022
compound="Cc1c2c(nn1C)CSCc1cc(n(C)n1)CSc1cc(c3ccccc3c1)OCCCc1c(C(=O)O)n(C)c3c-2c(Cl)ccc13 [AZD5991] + CC(=O)O[C@H]1C(=O)[C@@]2(C)[C@H]([C@H](OC(=O)c3ccccc3)[C@]3(O)C[C@H](OC(=O)[C@H](O)[C@@H](NC(=O)c4ccccc4)c4ccccc4)C(C)=C1C3(C)C)[C@]1(OC(C)=O)CO[C@@H]1C[C@@H]2O [Paclitaxel] (first compound max 1 µM, 7x7, partner max 3 µM)" readout_number=0.0286

Query compound follows.
[in] Provide only the value of recorded Bliss excess for CC(=O)c1c(C)c2cnc(Nc3ccc(N4CCNCC4)cn3)nc2n(C2CCCC2)c1=O [Palbociclib] + Cn1cnc2c(F)c(Nc3ccc(Br)cc3Cl)c(C(=O)NOCCO)cc21 [Selumetinib] (first compound max 10 µM, 7x7, partner max 10 µM)
[out] 0.0858

----------
Each item that follows carries a reported combination Emax.
# Tested on: NCI-H1651 (Lung Adenocarcinoma)
# assay.remarks: combination Emax (second highest fraction inhibited in the dose matrix, 72 h); higher = more inhibition; extreme values may be limits of the assay
Form rule: numeric answer, no unit written next to it.

[in] Provide only the value of recorded combination Emax for C[C@@H]1COCCN1c1cc(C2([S@](C)(=N)=O)CC2)nc(-c2ccnc3[nH]ccc23)n1 [AZD6738] + Nc1ccn([C@@H]2O[C@H](CO)[C@@H](O)C2(F)F)c(=O)n1 [Gemcitabine] (first compound max 10 µM, 7x7, partner max 0.3 µM)
[out] 0.747

[in] Provide only the value of recorded combination Emax for CC1(C)CCC(CN2CCN(c3ccc(C(=O)NS(=O)(=O)c4ccc(NCC5CCOCC5)c([N+](=O)[O-])c4)c(Oc4cnc5[nH]ccc5c4)c3)CC2)=C(c2ccc(Cl)cc2)C1 [Venetoclax] + C[C@@H]1COCCN1C2=NC(=NC(=C2)C3(CC3)[S@](=N)(=O)C)C4=C5C=CNC5=NC=C4 [AZD6738] (first compound max 1 µM, 7x7, partner max 10 µM)
[out] 0.652

[in] Provide only the value of recorded combination Emax for Cn1cnc2c(F)c(Nc3ccc(Br)cc3Cl)c(C(=O)NOCCO)cc21 [Selumetinib] + C[C@@H]1COCCN1C2=NC(=NC(=C2)C3(CC3)[S@](=N)(=O)C)C4=C5C=CNC5=NC=C4 [AZD6738] (first compound max 10 µM, 7x7, partner max 10 µM)
[out] 0.377

[in] Provide only the value of recorded combination Emax for Cc1c2c(nn1C)CSCc1cc(n(C)n1)CSc1cc(c3ccccc3c1)OCCCc1c(C(=O)O)n(C)c3c-2c(Cl)ccc13 [AZD5991] + CS(=O)(=O)CCNCc1ccc(-c2ccc3ncnc(Nc4ccc(OCc5cccc(F)c5)c(Cl)c4)c3c2)o1 [Lapatinib] (first compound max 1 µM, 7x7, partner max 10 µM)
[out] 0.307

----------
# System: NB13 (Neuroblastoma)
# assay.remarks: combination Emax (second highest fraction inhibited in the dose matrix, 72 h); higher = more inhibition; extreme values may be limits of the assay
Each item that follows carries a reported combination Emax.
Form rule: numeric answer, no unit written next to it.

compound="CN(C)CCCOc1ccc(-c2ccc3ncc4c(c3c2)n(C2CCOCC2)c(=O)n4C)cn1 [AZD0156] + CCN(CCO)CCCOc1ccc2c(Nc3cc(CC(=O)Nc4cccc(F)c4)[nH]n3)ncnc2c1 [AZD2811] (first compound max 1 µM, 7x7, partner max 1 µM)" system="NB13 (Neuroblastoma)" value_kind="combination Emax" readout_number=0.479
compound="CS(=O)(=O)CCNCc1ccc(-c2ccc3ncnc(Nc4ccc(OCc5cccc(F)c5)c(Cl)c4)c3c2)o1 [Lapatinib] + NC1(c2ccc(-c3nc4ccn5c(=O)[nH]nc5c4cc3-c3ccccc3)cc2)CCC1 [MK-2206] (first compound max 10 µM, 7x7, partner max 10 µM)" system="NB13 (Neuroblastoma)" value_kind="combination Emax" readout_number=0.952

[in] Provide only the value of recorded combination Emax for Cc1cc2ncnn2cc1Nc1ncc2c(n1)n(C1CCOCC1)c(=O)n2C [AZD7648] + COc1cc([C@@H]2c3cc4c(cc3[C@@H](O[C@@H]3O[C@@H]5CO[C@@H](C)O[C@H]5[C@H](O)[C@H]3O)[C@H]3COC(=O)[C@H]23)OCO4)cc(OC)c1O [Etoposide] (first compound max 10 µM, 7x7, partner max 10 µM)
[out] 0.653

----------
# System: PEO1 (Ovarian Carcinoma)
# assay.remarks: Bliss excess, mean over the matrix (fraction); higher = more synergy
Each item that follows carries a reported Bliss excess.
Form rule: numeric answer, no unit written next to it.

Before answering, review these 6 worked examples.
compound="Cn1cnc2c(F)c(Nc3ccc(Br)cc3Cl)c(C(=O)NOCCO)cc21 [Selumetinib] + C[C@@H]1COCCN1C2=NC(=NC(=C2)C3(CC3)[S@](=N)(=O)C)C4=C5C=CNC5=NC=C4 [AZD6738] (first compound max 10 µM, 7x7, partner max 10 µM)" system="PEO1 (Ovarian Carcinoma)" value_kind="Bliss excess" readout_number=-0.0357
compound="Cc1cc2ncnn2cc1Nc1ncc2c(n1)n(C1CCOCC1)c(=O)n2C [AZD7648] + COc1cc([C@@H]2c3cc4c(cc3[C@@H](O[C@@H]3O[C@@H]5CO[C@@H](C)O[C@H]5[C@H](O)[C@H]3O)[C@H]3COC(=O)[C@H]23)OCO4)cc(OC)c1O [Etoposide] (first compound max 10 µM, 7x7, partner max 10 µM)" system="PEO1 (Ovarian Carcinoma)" value_kind="Bliss excess" readout_number=0.0461
compound="N#Cc1cnc(Nc2cc(NC[C@H]3CNCCO3)c(C(F)(F)F)cn2)cn1 [SRA737] + Nc1ccn([C@@H]2O[C@H](CO)[C@@H](O)C2(F)F)c(=O)n1 [Gemcitabine] (first compound max 10 µM, 7x7, partner max 0.3 µM)" system="PEO1 (Ovarian Carcinoma)" value_kind="Bliss excess" readout_number=0.113
compound="C[C@@H]1COCCN1c1cc(C2([S@](C)(=N)=O)CC2)nc(-c2ccnc3[nH]ccc23)n1 [AZD6738] + Nc1ccn([C@@H]2O[C@H](CO)[C@@H](O)C2(F)F)c(=O)n1 [Gemcitabine] (first compound max 10 µM, 7x7, partner max 0.3 µM)" system="PEO1 (Ovarian Carcinoma)" value_kind="Bliss excess" readout_number=0.0764
compound="CC1(C)CCC(CN2CCN(c3ccc(C(=O)NS(=O)(=O)c4ccc(NCC5CCOCC5)c([N+](=O)[O-])c4)c(Oc4cnc5[nH]ccc5c4)c3)CC2)=C(c2ccc(Cl)cc2)C1 [Venetoclax] + COc1cc(Nc2ncc3c(n2)-c2ccc(Cl)cc2C(c2c(F)cccc2OC)=NC3)ccc1C(=O)O [Alisertib] (first compound max 1 µM, 7x7, partner max 10 µM)" system="PEO1 (Ovarian Carcinoma)" value_kind="Bliss excess" readout_number=0.0007
compound="Cc1cc2ncnn2cc1Nc1ncc2c(n1)n(C1CCOCC1)c(=O)n2C [AZD7648] + CCN(CCO)CCCOc1ccc2c(Nc3cc(CC(=O)Nc4cccc(F)c4)[nH]n3)ncnc2c1 [AZD2811] (first compound max 10 µM, 7x7, partner max 1 µM)" system="PEO1 (Ovarian Carcinoma)" value_kind="Bliss excess" readout_number=-0.0141

[in] Provide only the value of recorded Bliss excess for Cc1c2c(nn1C)CSCc1cc(n(C)n1)CSc1cc(c3ccccc3c1)OCCCc1c(C(=O)O)n(C)c3c-2c(Cl)ccc13 [AZD5991] + C[C@@H]1COCCN1C2=NC(=NC(=C2)C3(CC3)[S@](=N)(=O)C)C4=C5C=CNC5=NC=C4 [AZD6738] (first compound max 1 µM, 7x7, partner max 10 µM)
[out] 0.0062

[in] Provide only the value of recorded Bliss excess for C[C@@H]1COCCN1c1cc(C2([S@](C)(=N)=O)CC2)nc(-c2ccnc3[nH]ccc23)n1 [AZD6738] + O=C(c1cc(Cc2n[nH]c(=O)c3ccccc23)ccc1F)N1CCN(C(=O)C2CC2)CC1 [Olaparib] (first compound max 10 µM, 7x7, partner max 10 µM)
[out] 0.0069
